Target sequence: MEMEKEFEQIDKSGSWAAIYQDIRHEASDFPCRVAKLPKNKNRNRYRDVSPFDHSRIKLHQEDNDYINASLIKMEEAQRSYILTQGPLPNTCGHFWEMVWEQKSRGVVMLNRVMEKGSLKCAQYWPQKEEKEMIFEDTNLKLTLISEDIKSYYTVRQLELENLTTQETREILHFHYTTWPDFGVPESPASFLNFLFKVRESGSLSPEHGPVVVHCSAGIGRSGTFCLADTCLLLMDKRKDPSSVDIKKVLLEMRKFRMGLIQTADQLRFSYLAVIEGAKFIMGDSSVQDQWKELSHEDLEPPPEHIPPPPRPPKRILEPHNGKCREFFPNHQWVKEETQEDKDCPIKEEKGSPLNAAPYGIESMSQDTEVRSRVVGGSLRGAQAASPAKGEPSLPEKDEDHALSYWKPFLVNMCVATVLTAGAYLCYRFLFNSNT
Each entry below carries its reported log10(IC50).
quantityMeasured: log10(IC50) (log10 of the value in nM)

- chemicalStructure: "CC1(C)CC[C@]2(C(=O)O)CC[C@]3(C)C(=CC[C@@H]4[C@@]5(C)Cc6cnn(C(=O)c7ccncc7)c6C(C)(C)[C@@H]5CC[C@]43C)[C@@H]2C1"
  log10(IC50): 2.91
- chemicalStructure: "CCCCCC(=O)n1ncc2c1C(C)(C)[C@@H]1CC[C@]3(C)[C@H](CC=C4[C@@H]5CC(C)(C)CC[C@]5(C(=O)O)CC[C@]43C)[C@@]1(C)C2"
  log10(IC50): 3.24
- chemicalStructure: "CNc1ncc2c(n1)C(C)(C)[C@@H]1CC[C@]3(C)[C@H](CC=C4[C@@H]5CC(C)(C)CC[C@]5(C(=O)O)CC[C@]43C)[C@@]1(C)C2"
  log10(IC50): 3.74
- chemicalStructure: "CC1(C)CC[C@]2(C(=O)O)CC[C@]3(C)C(=CC[C@@H]4[C@@]5(C)C[C@@H](O)[C@@H](O)C(C)(C)[C@@H]5CC[C@]43C)[C@@H]2C1"
  log10(IC50): 4.16
- chemicalStructure: "CC1(C)CC[C@]2(C(=O)O)CC[C@]3(C)C(=CC[C@@H]4[C@@]5(C)Cc6cn[nH]c6C(C)(C)[C@@H]5CC[C@]43C)[C@@H]2C1"
  log10(IC50): 3.22
- chemicalStructure: "CC1(C)CC[C@]2(C(=O)O)CC[C@]3(C)C(=CC[C@@H]4[C@@]5(C)Cc6c([nH]c7ccccc67)C(C)(C)[C@@H]5CC[C@]43C)[C@@H]2C1"
  log10(IC50): 2.79
- chemicalStructure: "O=C(O)C(=O)c1ccc(OCc2ccc(COc3ccc(C(=O)C(=O)O)cc3)cc2)cc1"
  log10(IC50): 3.59
